These data points were gathered from patent US20240246968A1.

# target.or.test.system: interaction between recombinant K-Ras4B G12C mutant protein and cRAF RAS-binding domain (cRAF-RBD) (Homo sapiens, UniProt P01116, G12C)
# Sequence (P01116 with tags, fused parts or gaps isoform P01116-2 G12C): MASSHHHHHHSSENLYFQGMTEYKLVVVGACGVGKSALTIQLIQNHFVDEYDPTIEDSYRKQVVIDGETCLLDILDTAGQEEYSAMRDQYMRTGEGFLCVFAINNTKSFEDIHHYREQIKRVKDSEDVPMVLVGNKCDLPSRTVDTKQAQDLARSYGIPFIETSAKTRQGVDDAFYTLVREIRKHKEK
# procedure.details: Inhibitory activity on interaction between KRAS G12C and cRAF (Alpha technology)
# protocol.conditions: GMPPNP-bound KRAS G12C incubated with compound at 25° C. for 1 hour, then cRAF-RBD; Alpha signal
quantity.measured: IC50 (nM)

Here are 4 compounds together with their reported answers.
compound	IC50 [nM]
Cc1cc2c(nc(CC(F)(F)F)n2C)c(Cl)c1-c1cccn2c(C(=O)c3cc(F)c(NC(=O)/C=C/CNC(C)(C)C)c(F)c3)ccc12	96
CO[C@H]1CC[C@H](NC/C=C/C(=O)Nc2c(F)cc(C(=O)c3ccc4c(-c5c(C(F)(F)F)cc6c(nc(C)n6C)c5Cl)cccn34)c(F)c2F)CC1	78.9
CCc1nc2cc(-c3cccn4c(C(=O)c5cc(F)c(NC(=O)/C=C/CN[C@H]6CC[C@H](OC)CC6)c(F)c5)ccc34)c(C(F)(F)F)cc2n1C	72
COc1cc2c(ncn2C)c(Cl)c1-c1cccn2c(C(=O)c3cc(F)c(NC(=O)/C=C/CNC(C)(C)C)c(F)c3)ccc12 (single isomer, unassigned) [Example 14-1]	57

A. Cc1nc2c(-c3cc4nc(C)n(C)c4cc3C(F)(F)F)cccn2c1C(=O)c1cc(F)c(NC(=O)/C=C/CNC(C)(C)C)c(F)c1
B. COc1c(-c2cccn3c(C(=O)c4cc(F)c(NC(=O)/C=C/CNC5CCOCC5)c(F)c4)ccc23)c(C(F)(F)F)cc2c1nc(C)n2C (single isomer, unassigned) [Example 61-1]
Prompt: # returns the entry with the larger IC50; inputs A and B Answer = label.
Completion: B
(B: 1900 nM, A: 75 nM)

* * *

# target.or.test.system: biotinylated KRAS G12C protein (GMP-PNP loaded) and GST-tagged Ras binding domain of c-RAF (Homo sapiens, UniProt P01116, C118S/C51S/C80L/G12C)
# Sequence (P01116 with tags, fused parts or gaps isoform P01116-2 G12C/C51S/C80L/C118S): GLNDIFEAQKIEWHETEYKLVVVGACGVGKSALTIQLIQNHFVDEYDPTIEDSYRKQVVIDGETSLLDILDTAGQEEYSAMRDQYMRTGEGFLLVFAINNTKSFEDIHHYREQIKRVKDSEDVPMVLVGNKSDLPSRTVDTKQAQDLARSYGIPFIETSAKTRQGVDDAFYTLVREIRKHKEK
# procedure.details: RAS:RAF-RBD binding assay (TR-FRET)
# protocol.conditions: 30-minute incubation with KRAS G12C, then RAF-RBD 60 minute
quantity.measured: IC50 (nM)

Worked cases, answers included:
molecule	units	IC50
Cc1nc2c(Cl)c(-c3cccn4c(C(=O)c5cc(F)c(NC(=O)/C=C/CNC6CCC6(C)C)c(F)c5)ccc34)c(C(F)(F)F)cc2n1C (stereo not shown) [Example 127, mono(2,2,2-trifluoroacetate)]	nM	403
CO[C@H]1CC[C@H](NC/C=C/C(=O)Nc2c(F)cc(C(=O)c3ccc4c(-c5cc6c(cc5C(F)(F)F)CCN(C)C6=O)cccn34)cc2F)CC1	nM	168

I. Cc1nc2c(Cl)c(-c3cccn4c(C(=O)c5cc(F)c(NC(=O)/C=C/CN(C)C)c(F)c5)ccc34)c(C(F)(F)F)cc2n1C [Example 128, mono(2,2,2-trifluoroacetate)]
II. Cc1nc2c(Cl)c(-c3cccn4c(C(=O)c5cc(F)c(NC(=O)/C=C/CN6CCC[C@H]6CO)c(F)c5)ccc34)c(C(F)(F)F)cc2n1C [Example 130, mono(2,2,2-trifluoroacetate)]
III. Cc1nc2c(Cl)c(-c3cccn4c(C(=O)c5cc(F)c(NC(=O)/C=C/CNC6(C)CCOC6)c(F)c5)ccc34)c(C(F)(F)F)cc2n1C (single isomer, unassigned) [Example 131a]
IV. CO[C@H]1CC[C@H](NC/C=C/C(=O)Nc2c(F)cc(C(=O)n3ccc4c(-c5c(C(F)(F)F)cc6c(nc(C)n6C)c5Cl)cccc43)cc2F)CC1
Prompt: rank_up(items): orders items by reported IC50 in ascending numerical order. Rank the items, then write their labels in that order.
Completion: III, IV, II, I

* * *

# target.or.test.system: interaction between recombinant K-Ras4B G12C mutant protein and cRAF RAS-binding domain (cRAF-RBD) (Homo sapiens, UniProt P01116, G12C)
# procedure.details: Inhibitory activity on interaction between KRAS G12C and cRAF (Alpha technology)
# protocol.conditions: GMPPNP-bound KRAS G12C incubated with compound at 25° C. for 1 hour, then cRAF-RBD; Alpha signal
pIC50: −log10 of the molar value.
quantity.measured: pIC50

molecule	quantity.measured	numeric.readout
CO[C@H]1CC[C@H](NC/C=C/C(=O)Nc2c(F)cc(C(=O)c3ccc4c(-c5c(C)cc6c(ncn6C)c5C)cccn34)cc2F)CC1 (single isomer, unassigned) [Example 34-1]	pIC50	7.03

I. CO[C@H]1CC[C@H](NC/C=C/C(=O)Nc2c(F)cc(C(=O)c3ccc4c(-c5c(C(F)F)cc6c(nc(C)n6C)c5Cl)cccn34)cc2F)CC1 [Example 64]
II. CO[C@H]1CC[C@H](NC/C=C/C(=O)Nc2c(F)cc(C(=O)c3ccc4c(-c5c(C)cc6c(ncn6C)c5C)cccn34)cc2F)CC1 (single isomer, unassigned) [Example 34-2]
III. COc1c(-c2cc(F)cn3c(C(=O)c4cc(F)c(NC(=O)/C=C/CNC5(C)CC5)c(F)c4)cnc23)c(C(F)(F)F)cc2c1nc(C)n2C (single isomer, unassigned) [Example 112-2]
Prompt: Please order the records by their reported pIC50, lowest number first. Order the labels as requested and give them as your answer.
Completion: III, II, I

I. CO[C@H]1CC[C@H](NC/C=C/C(=O)Nc2c(F)cc(C(=O)c3cc(CC#N)c4c(-c5c(C)cc6c(nc(C)n6C)c5Cl)cccn34)cc2F)CC1 [Example 108]
II. C#Cc1cc(C(=O)c2cc(F)c(NC(=O)/C=C/CN[C@H]3CC[C@H](OC)CC3)c(F)c2)n2cccc(-c3c(C)cc4c(nc(C)n4C)c3Cl)c12 [Example 100]
Prompt: Between I and II , which one shows the smaller pIC50 number? Answer by quoting the chosen item's label.
Completion: II
(II: 7.15, I: 7.39)

I. COc1cc2c(nc(C)n2C)c(Cl)c1-c1cccn2c(C(=O)c3cc(F)c(NC(=O)/C=C/CNC(C)(C)C)c(F)c3)ccc12 (single isomer, unassigned) [Example 36-1]
II. Cc1nc2cc(-c3cccn4c(C(=O)c5cc(F)c(NC(=O)/C=C/CNC6(C)CC6)c(F)c5)ccc34)c(C(F)(F)F)cc2n1C [Example 62]
Prompt: Would you let me know which has the greater pIC50 value, I or II ? Give the label of your selection.
Completion: I
(I: 7.40, II: 7.18)

1. COc1c(-c2cccn3c(C(=O)c4cc(F)c(NC(=O)/C=C/CNC(C)(C)C)c(F)c4)ccc23)c(C(F)(F)F)cc2c1nc(C)n2C [Example 53]
2. Cc1nc2cc(-c3cccn4c(C(=O)c5cc(F)c(NC(=O)/C=C/CNC6CCOC(C)(C)C6)c(F)c5)ccc34)c(C(F)(F)F)cc2n1C (stereo not shown) [Example 66]
Prompt: Recorded pIC50 values differ for 1 and 2 ; which one is higher? Please indicate the selected item by its label.
Completion: 1

P. C/C=C/c1cc(C(=O)c2cc(F)c(NC(=O)/C=C/CN[C@H]3CC[C@H](OC)CC3)c(F)c2)n2cccc(-c3c(C)cc4c(nc(C)n4C)c3Cl)c12 [Example 96]
Q. C=Cc1cc(C(=O)c2cc(F)c(NC(=O)/C=C/CNC3(C)CC3)c(F)c2)n2cccc(-c3c(OC)cc4c(nc(C)n4C)c3F)c12 (single isomer, unassigned) [Example 111-1]
Prompt: Field: entry with larger pIC50 (options P / Q ). Your choice should be expressed through its label.
Completion: Q
(Q: 8.06, P: 7.44)

a. CO[C@H]1CC[C@H](NC/C=C/C(=O)Nc2c(F)cc(C(=O)c3cc(-c4cnn(C)c4)c4c(-c5c(C)cc6c(nc(C)n6C)c5Cl)cccn34)cc2F)CC1 [Example 101]
b. Cn1cnc2cc(-c3cccn4c(C(=O)c5cc(F)c(NC(=O)/C=C/CNC6(C)CCOCC6)c(F)c5)ccc34)c(C(F)(F)F)cc21 [Example 11]
Prompt: Higher pIC50: a or b ? Response format: the label of the selected entry.
Completion: b

P. Cc1nc2cc(-c3cccn4c(C(=O)c5cc(F)c(NC(=O)/C=C/CN[C@@H]6CCOC6)c(F)c5)ccc34)c(C(F)(F)F)cc2n1C [Example 91]
Q. COCCn1c(C)nc2c(F)c(-c3cccn4c(C(=O)c5cc(F)c(NC(=O)/C=C/CNC6(C)CC6)c(F)c5)ccc34)c(OC)cc21 [Example 113]
R. COc1cc2c(nc(C)n2C)c(F)c1-c1cccn2c(C(=O)c3cc(F)c(NC(=O)/C=C/CN[C@H]4CC[C@H](OC)CC4)c(F)c3)ccc12 [Example 44]
S. CO[C@H]1CC[C@H](NC/C=C/C(=O)Nc2c(F)cc(C(=O)c3ccc4c(-c5cc6nc(C)n(C)c6cc5C(F)(F)F)nccn34)cc2F)CC1 [Example 115]
Prompt: Let's sort these by pIC50, smallest first. Go ahead? Please respond with the labels ordered as the question requires.
Completion: S, P, Q, R

A. COc1cc2c(cc1-c1cccn3c(C(=O)c4cc(F)c(NC(=O)/C=C/CNC(C)(C)C)c(F)c4)ccc13)nc(C)n2C [Example 5]
B. CCc1nc2c(-c3cc4nc(C)n(C)c4cc3C(F)(F)F)cccn2c1C(=O)c1cc(F)c(NC(=O)/C=C/CN[C@H]2CC[C@H](OC)CC2)c(F)c1 [Example 99]
Prompt: Pick one: A or B . Which one has the lower reported pIC50? Answer with the label corresponding to your selection.
Completion: B
